- ASSAY COMMENT: Dynamic solubility in SGF (simulated gastric fluids), HPLC
- Assay type: physicochemical
- TEST CONDITIONS: Media: SGF, equilibrated for 1 hour
Kindly state Solubility 1 hour for each of the entries shown.
Express it in mg/mL; write the number only.

Please fill in: Solubility 1 hour reported for CCOc1ccc(Cc2cc([C@@H]3O[C@H](SC)[C@@H](O)[C@H](O)[C@H]3O)ccc2Cl)cc1 [Form 2, reference compound] = 0.06

Please fill in: Solubility 1 hour reported for CCOc1ccc(Cc2cc([C@@H]3O[C@H](SC)[C@@H](O)[C@H](O)[C@H]3O)ccc2Cl)cc1 [Form I] = 0.10

Please fill in: Solubility 1 hour reported for CCOc1ccc(Cc2cc([C@@H]3O[C@H](SC)[C@@H](O)[C@H](O)[C@H]3O)ccc2Cl)cc1 [Form III] = 0.13

Please fill in: Solubility 1 hour reported for CCOc1ccc(Cc2cc([C@@H]3O[C@H](SC)[C@@H](O)[C@H](O)[C@H]3O)ccc2Cl)cc1 [Form VII] = 0.15

Please fill in: Solubility 1 hour reported for CCOc1ccc(Cc2cc([C@@H]3O[C@H](SC)[C@@H](O)[C@H](O)[C@H]3O)ccc2Cl)cc1 [Form II] = 0.08

----------
- ASSAY COMMENT: Dynamic solubility in FaSSIF (fasted state simulated intestinal fluids, pH=6.5), HPLC
- Format: physicochemical
- TEST CONDITIONS: Table 27; head prints Media:SGF, text says FaSSIF pH=6.5; equilibrated for 1 hour
- Protocol: The HPLC method parameters for solubility test in the present disclosure are as follows: Saturated solutions of Form I, Form II, Form III, Form VII and the existing crystalline Form 2 in SGF (Simulated gastric fluids) were prepared. […] After equilibrated for 1 hour, concentrations of the saturated solutions were measured by High Performance Liquid Chromatography (HPLC).
VALUE KIND: Solubility 1 hour
State the value, then name its unit.

Please fill in: Solubility 1 hour reported for CCOc1ccc(Cc2cc([C@@H]3O[C@H](SC)[C@@H](O)[C@H](O)[C@H]3O)ccc2Cl)cc1 [Form 2, reference compound] = 0.13 mg/mL

Please fill in: Solubility 1 hour reported for CCOc1ccc(Cc2cc([C@@H]3O[C@H](SC)[C@@H](O)[C@H](O)[C@H]3O)ccc2Cl)cc1 [Form III] = 0.18 mg/mL

Please fill in: Solubility 1 hour reported for CCOc1ccc(Cc2cc([C@@H]3O[C@H](SC)[C@@H](O)[C@H](O)[C@H]3O)ccc2Cl)cc1 [Form VIII] = 0.18 mg/mL

Please fill in: Solubility 1 hour reported for CCOc1ccc(Cc2cc([C@@H]3O[C@H](SC)[C@@H](O)[C@H](O)[C@H]3O)ccc2Cl)cc1 [Form VII] = 0.20 mg/mL

----------
- ASSAY COMMENT: Hygroscopicity assessment by dynamic vapor sorption (DVS)
- Type: physicochemical
- TEST CONDITIONS: 25° C., cycle 20%-95%-0%-95% RH
VALUE KIND: Weight gain under 80% RH (%)
Express it in %; write the number only.

Please fill in: Weight gain under 80% RH reported for CCOc1ccc(Cc2cc([C@@H]3O[C@H](SC)[C@@H](O)[C@H](O)[C@H]3O)ccc2Cl)cc1 [Form III] = 0.13

Please fill in: Weight gain under 80% RH reported for CCOc1ccc(Cc2cc([C@@H]3O[C@H](SC)[C@@H](O)[C@H](O)[C@H]3O)ccc2Cl)cc1 [Form I] = 3.55

Please fill in: Weight gain under 80% RH reported for CCOc1ccc(Cc2cc([C@@H]3O[C@H](SC)[C@@H](O)[C@H](O)[C@H]3O)ccc2Cl)cc1 [Form VI] = 1.80

Please fill in: Weight gain under 80% RH reported for CCOc1ccc(Cc2cc([C@@H]3O[C@H](SC)[C@@H](O)[C@H](O)[C@H]3O)ccc2Cl)cc1 [Form II] = 2.46

----------
- ASSAY COMMENT: Particle size distribution assessment (laser particle size analyzer)
- Format: physicochemical
- TEST CONDITIONS: wet method, Isopar G
VALUE KIND: D50

Please fill in: D50 reported for CCOc1ccc(Cc2cc([C@@H]3O[C@H](SC)[C@@H](O)[C@H](O)[C@H]3O)ccc2Cl)cc1 [Form VIII] = 36.60 μm

Please fill in: D50 reported for CCOc1ccc(Cc2cc([C@@H]3O[C@H](SC)[C@@H](O)[C@H](O)[C@H]3O)ccc2Cl)cc1 [Form V] = 18.81 μm

Please fill in: D50 reported for CCOc1ccc(Cc2cc([C@@H]3O[C@H](SC)[C@@H](O)[C@H](O)[C@H]3O)ccc2Cl)cc1 [Form 2, reference compound] = 45.00 μm

Please fill in: D50 reported for CCOc1ccc(Cc2cc([C@@H]3O[C@H](SC)[C@@H](O)[C@H](O)[C@H]3O)ccc2Cl)cc1 [Form I] = 8.97 μm

----------
- ASSAY COMMENT: Particle size distribution assessment (laser particle size analyzer)
- Format: physicochemical
- TEST CONDITIONS: wet method, Isopar G
VALUE KIND: D90 (μm)
Express it in μm; write the number only.

Please fill in: D90 reported for CCOc1ccc(Cc2cc([C@@H]3O[C@H](SC)[C@@H](O)[C@H](O)[C@H]3O)ccc2Cl)cc1 [Form 2, reference compound] = 144.4

Please fill in: D90 reported for CCOc1ccc(Cc2cc([C@@H]3O[C@H](SC)[C@@H](O)[C@H](O)[C@H]3O)ccc2Cl)cc1 [Form V] = 72.98

Please fill in: D90 reported for CCOc1ccc(Cc2cc([C@@H]3O[C@H](SC)[C@@H](O)[C@H](O)[C@H]3O)ccc2Cl)cc1 [Form I] = 31.63

Please fill in: D90 reported for CCOc1ccc(Cc2cc([C@@H]3O[C@H](SC)[C@@H](O)[C@H](O)[C@H]3O)ccc2Cl)cc1 [Form VIII] = 112.4

----------
- ASSAY COMMENT: Particle size distribution assessment (laser particle size analyzer)
- Assay type: physicochemical

[
  {
    "COMPOUND": "CCOc1ccc(Cc2cc([C@@H]3O[C@H](SC)[C@@H](O)[C@H](O)[C@H]3O)ccc2Cl)cc1 [Form I]",
    "Particle size distribution (description)": "narrow and normal"
  },
  {
    "COMPOUND": "CCOc1ccc(Cc2cc([C@@H]3O[C@H](SC)[C@@H](O)[C@H](O)[C@H]3O)ccc2Cl)cc1 [Form VIII]",
    "Particle size distribution (description)": "narrow and normal"
  },
  {
    "COMPOUND": "CCOc1ccc(Cc2cc([C@@H]3O[C@H](SC)[C@@H](O)[C@H](O)[C@H]3O)ccc2Cl)cc1 [Form V]",
    "Particle size distribution (description)": "narrow and normal"
  }
]

----------
Kindly state D10 for each of the entries shown.
- ASSAY COMMENT: Particle size distribution assessment (laser particle size analyzer)
- Assay type: physicochemical
- TEST CONDITIONS: wet method, Isopar G
Express it in μm; write the number only.

Please fill in: D10 reported for CCOc1ccc(Cc2cc([C@@H]3O[C@H](SC)[C@@H](O)[C@H](O)[C@H]3O)ccc2Cl)cc1 [Form I] = 3.34

Please fill in: D10 reported for CCOc1ccc(Cc2cc([C@@H]3O[C@H](SC)[C@@H](O)[C@H](O)[C@H]3O)ccc2Cl)cc1 [Form 2, reference compound] = 2.32

Please fill in: D10 reported for CCOc1ccc(Cc2cc([C@@H]3O[C@H](SC)[C@@H](O)[C@H](O)[C@H]3O)ccc2Cl)cc1 [Form VIII] = 7.30

Please fill in: D10 reported for CCOc1ccc(Cc2cc([C@@H]3O[C@H](SC)[C@@H](O)[C@H](O)[C@H]3O)ccc2Cl)cc1 [Form V] = 4.38

----------
- ASSAY COMMENT: Dynamic solubility in FaSSIF (fasted state simulated intestinal fluids, pH=6.5), HPLC
- Assay type: physicochemical
- TEST CONDITIONS: fasted state simulated intestinal fluid (FaSSIF), pH 6.5, fassif, thermodynamic from solid, Table 27; head prints Media:SGF, text says FaSSIF pH=6.5; equilibrated for 1 hour
VALUE KIND: solubility at 1 h (µg/mL)
Express it in µg/mL; write the number only.

Please fill in: solubility at 1 h reported for CCOc1ccc(Cc2cc([C@@H]3O[C@H](SC)[C@@H](O)[C@H](O)[C@H]3O)ccc2Cl)cc1 [Form II] = 150

----------
Kindly state MV (average particle size based on volume) for each of the entries shown.
- ASSAY COMMENT: Particle size distribution assessment (laser particle size analyzer)
- Assay type: physicochemical
- TEST CONDITIONS: wet method, Isopar G
Express it in μm; write the number only.

Please fill in: MV (average particle size based on volume) reported for CCOc1ccc(Cc2cc([C@@H]3O[C@H](SC)[C@@H](O)[C@H](O)[C@H]3O)ccc2Cl)cc1 [Form I] = 14.48

Please fill in: MV (average particle size based on volume) reported for CCOc1ccc(Cc2cc([C@@H]3O[C@H](SC)[C@@H](O)[C@H](O)[C@H]3O)ccc2Cl)cc1 [Form 2, reference compound] = 60.43

Please fill in: MV (average particle size based on volume) reported for CCOc1ccc(Cc2cc([C@@H]3O[C@H](SC)[C@@H](O)[C@H](O)[C@H]3O)ccc2Cl)cc1 [Form VIII] = 51.93

Please fill in: MV (average particle size based on volume) reported for CCOc1ccc(Cc2cc([C@@H]3O[C@H](SC)[C@@H](O)[C@H](O)[C@H]3O)ccc2Cl)cc1 [Form V] = 32.70
